Test system: SF-295
Test: NCI human tumor cell panel: SF-295 (CNS Cancer)
Format: cell-based
Details: SF-295, CNS Cancer, read-out: Log10 GI50 (converted)
Note to self: GI50 under 30 µM means fulfilled, ties and anything higher get not fulfilled.

Answer whether the compound O=Cc1ccc(-c2ccc(-c3ccc(C=O)s3)[se]2)s1 [NSC 675345] has GI50 strictly less than 30 µM
not fulfilled

Would you kindly repeat that for O=Cc1ccc(-c2ccc(-c3ccc[se]3)[se]2)[se]1 [NSC 675244] ?
fulfilled

Same read-out for O=Cc1ccc(-c2ccc(-c3cccs3)[se]2)s1 [NSC 675346] ?
fulfilled

And what about the compound O=Cc1ccc(-c2ccc(-c3ccc(C=O)[se]3)[se]2)[se]1 [NSC 675245] ?
not fulfilled

And the next one, OCc1ccc(-c2ccc(-c3cccs3)[se]2)s1 [NSC 675344] ?
fulfilled

Further, for O=Cc1ccc(-c2ccc(-c3ccc(C=O)[se]3)s2)[se]1 [NSC 676630] ?
not fulfilled

###

Test system: SN12C
Experiment: NCI human tumor cell panel: SN12C (Renal Cancer)
Type: cell-based
Details: read-out: Log10 TGI (converted)
measured_property: IC (TGI)

# query: IC (TGI) of entry "OCc1ccc(-c2ccc(-c3ccc(CO)[se]3)s2)[se]1"
> 100 µM

Then "OCc1ccc(-c2ccc(-c3ccc(CO)s3)[se]2)s1" ?
> 100 µM

Follow-up item: "O=Cc1ccc(-c2ccc(-c3ccc(C=O)[se]3)s2)s1"
85.1 µM

Check "OCc1ccc(-c2ccc(-c3ccc(CO)[se]3)s2)s1" too.
> 100 µM

Query "OCc1ccc(-c2ccc(-c3ccc(CO)[se]3)[se]2)[se]1" next
11.7 µM

Also "OCc1ccc(-c2ccc(-c3ccc[se]3)s2)[se]1" , if possible.
> 100 µM

###

Tested on: LOX IMVI
Experiment: NCI human tumor cell panel: LOX IMVI (Melanoma)
Format: cell-based
Settings: Melanoma, read-out: Log10 TGI (converted)
measured_property: IC (TGI)

For the molecule shown here, O=Cc1ccc(-c2ccc(-c3ccc(C=O)[se]3)s2)[se]1 [NSC 676630] , give the reported IC (TGI).
> 100 µM

Continue with O=Cc1ccc(-c2ccc(-c3cccs3)[se]2)s1 [NSC 675346]
> 100 µM

For O=Cc1ccc(-c2ccc(-c3ccc[se]3)[se]2)[se]1 [NSC 675244] then?
20.9 µM

Same thing, different molecule: O=Cc1ccc(-c2ccc(-c3ccc(C=O)[se]3)[se]2)[se]1 [NSC 675245]
> 100 µM

Follow-up item: O=Cc1ccc(-c2ccc(-c3ccc(C=O)s3)[se]2)s1 [NSC 675345]
> 100 µM

What do you have for OCc1ccc(-c2ccc(-c3cccs3)[se]2)s1 [NSC 675344] ?
> 100 µM

###

Answer each item with its documented GI50.
Tested on: PC-3
Assay: NCI human tumor cell panel: PC-3 (Prostate Cancer)
Type: cell-based
Settings: PC-3, Prostate Cancer, read-out: Log10 GI50 (converted)

Any idea what its GI50 is? The compound is "O=Cc1ccc(-c2ccc(-c3ccc(C=O)[se]3)[se]2)[se]1"
> 100 µM

Moving on to "O=Cc1ccc(-c2ccc(-c3ccc[se]3)[se]2)[se]1"
12 µM

What do you have for "O=Cc1ccc(-c2ccc(-c3ccc(C=O)[se]3)s2)[se]1" ?
> 100 µM

# iterate: "O=Cc1ccc(-c2ccc(-c3cccs3)[se]2)s1"
61.7 µM

Subsequent entry: "O=Cc1ccc(-c2ccc(-c3ccc(C=O)s3)[se]2)s1"
> 100 µM

Can you check "OCc1ccc(-c2ccc(-c3cccs3)[se]2)s1" next?
> 100 µM

Taken from patent US20040063662A1.
